TEST_METHOD_NOTES: NCI Yeast Anticancer Drug Screen. Data for the bub3 strain (AID 167)
REPORTED_CONDITIONS: S. cerevisiae bub3 mutant strain, at 50.0 µM, stronger effect = higher value
About 79,000 compounds went through this panel and 15% of them were active in at least one assay; those are over-represented in the sample as a whole.
Note to self: values exactly at 50% are TRUE. So growth inhibition at or above 50% is TRUE, below is FALSE.

Take a look at these entries with their results.
COMPOUND: O=[N+]([O-])/C(Cl)=C(\Sc1ccccc1)C(Cl)=C(Cl)Cl
QUALITATIVE_LABEL: TRUE

COMPOUND: S=C(NCCc1ccccn1)N/N=C/c1ccccn1
QUALITATIVE_LABEL: TRUE

COMPOUND: Cc1ccc([S@](=O)c2occc2C=O)cc1
QUALITATIVE_LABEL: TRUE

COMPOUND: C=C1CC[C@@H]2C(C)(C)C(O)CCC2(C)C1COc1ccc2ccc(=O)oc2c1 (some centres undefined)
QUALITATIVE_LABEL: TRUE

COMPOUND: Cc1ccnc2ccc3ccccc3c12
QUALITATIVE_LABEL: FALSE

COMPOUND: CCOC(=O)c1cnc2cc3cccccc3n2c1=O
QUALITATIVE_LABEL: FALSE

Qu. Hi team, for C=CS(=O)(=O)c1ccc([N+](=O)[O-])cc1 , is the recorded growth inhibition at or above 50%?
Ans. TRUE

Qu. Hi team, for O=[N+]([O-])c1ccc(CN2CCN(c3nccs3)CC2)cc1 , is the recorded growth inhibition at or above 50%?
Ans. TRUE

Qu. Hi team, for NCCCC(=O)NC(Cc1cnc[nH]1)C(=O)O (centres undefined) , is the recorded growth inhibition at or above 50%?
Ans. FALSE

Qu. Hi team, for CC(=O)SC(SC(C)=O)SC(C)=O , is the recorded growth inhibition at or above 50%?
Ans. TRUE

Qu. Hi team, for COc1ccc(Cc2coc3ccccc3c2=O)cc1OC , is the recorded growth inhibition at or above 50%?
Ans. TRUE

Qu. Hi team, for CCC[n+]1ccnc2ccccc21 , is the recorded growth inhibition at or above 50%?
Ans. FALSE

---

TEST_METHOD_NOTES: NCI Yeast Anticancer Drug Screen. Data for the sgs1 mgt1 strain (AID 161);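 further: 0% = growth of cultures given vehicle only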
REPORTED_CONDITIONS: S. cerevisiae sgs1 mgt1 strain, at 50.0 µM, stronger effect = higher value
The panel holds about 79,000 compounds, 15% with a hit somewhere; the sample as a whole holds those more often.
MEASURED_QUANTITY: growth inhibition (%)
Entry rule: numbers only, all in %.

Example molecules with recorded growth inhibition:
MOLECULE: C=CC1(c2ccc(OC)cc2)OCCCO1
growth inhibition / %: 87.5
--
MOLECULE: O=C1OC(OC/C(Br)=C(/Br)COC2OC(=O)C(Cl)=C2Cl)C(Cl)=C1Cl (stereo unspecified)
growth inhibition / %: 98.9

Now consider the entry below.
Qu. Supply reported growth inhibition belonging to this molecule: Cc1cccc2c(C(=O)CBr)cc(-c3ccc(Cl)cc3)nc12
Ans. 95.2

---

TEST_METHOD_NOTES: NCI Yeast Anticancer Drug Screen. Data for the mec2-1 strain (AID 157)
REPORTED_CONDITIONS: S. cerevisiae mec2-1 strain, at 50.0 µM (retest, dose inferred, filed as 5.0), stronger effect = higher value
The panel holds about 79,000 compounds, 15% with a hit somewhere; the sample as a whole holds those more often.
MEASURED_QUANTITY: growth inhibition (%)
Entry rule: numbers only, all in %.

COMPOUND: O=C(/C=C(\C(=O)c1ccccc1)N(/C(=C/C(=O)c1ccccc1)C(=O)c1ccccc1)c1ccccc1)c1ccccc1
UNIT_TAG: %
growth inhibition: 13
--
COMPOUND: Cc1cc2nc3c(C)c4ccccc4c(C)n3c2cc1C
UNIT_TAG: %
growth inhibition: 96
--
COMPOUND: CN(C)C(=S)/N=c1\ss/c(=N\C(=S)N(C)C)n1Cc1ccco1
UNIT_TAG: %
growth inhibition: 0

Qu. Supply reported growth inhibition belonging to this compound: COc1ccc(CC/C(=N/O)c2ccccc2)cc1
Ans. 97

Qu. Supply reported growth inhibition belonging to this compound: O=CC1(c2ccc(Cl)cc2)NC(=O)NC1=O (stereo unspecified)
Ans. -3

Qu. Supply reported growth inhibition belonging to this compound: O=C(O)/C=C1\c2ccccc2CCC1c1ccc2ccccc2c1 (stereo unspecified)
Ans. 85

---

TEST_METHOD_NOTES: NCI Yeast Anticancer Drug Screen. Data for the rad50 strain (AID 155);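 further: 0% = growth of vehicle-only cultures of the same strain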
REPORTED_CONDITIONS: S. cerevisiae rad50 strain growth inhibition; at 50.0 µM; stronger effect = higher value
The panel holds about 79,000 compounds, 15% with a hit somewhere; the sample as a whole holds those more often.
Note to self: values exactly at 10% are met. So growth inhibition at or above 10% is met, below is not met.

Take a look at these entries with their results.
COMPOUND: CC(C)C1=CC2=CC(=O)C3C(C)(C)CCCC3(C)C2=C(O)C1=O (stereo not given)
QUALITATIVE_LABEL: met

COMPOUND: O=C(Oc1cc([N+](=O)[O-])ccc1Cl)Oc1cc([N+](=O)[O-])ccc1Cl
QUALITATIVE_LABEL: met

COMPOUND: CCCN(Cc1ccccc1)S(=O)(=O)c1ccc(C)cc1
QUALITATIVE_LABEL: not met

COMPOUND: CC(NNC(=S)N1CCCC1)c1ccc2ccccc2n1 (stereo not given)
QUALITATIVE_LABEL: met

Note: attention shifts to another entry.
Qu. Hi team, for CC(C)(C)CC(C)(C)c1ccc(Oc2ccc([N+](=O)[O-])cc2S(=O)(=O)O)cc1 , is the recorded growth inhibition at or above 10%?
Ans. met

---

TEST_METHOD_NOTES: NCI Yeast Anticancer Drug Screen. Data for the rad50 strain (AID 155);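 further: 0% = growth of vehicle-only cultures of the same strain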
REPORTED_CONDITIONS: S. cerevisiae rad50 strain growth inhibition; at 5.0 µM (retest, dose inferred, filed as 0.5)
About 79,000 compounds went through this panel and 15% of them were active in at least one assay; those are over-represented in the sample as a whole. Calls of active or inactive are those of the source. Cut-off read from the data, not from the text of the source: active = growth inhibition above about 70%; inactive = the rest.
Pick from yes (1) = active, no (0) = inactive when you respond.

Take a look at these entries with their results.
MOLECULE: O=C(/C=C(\OB(F)F)c1ccccc1)c1ccccc1
QUALITATIVE_LABEL: no (0)
//
MOLECULE: Cn1ncc2c(NCc3ccc(Cl)cc3)nc(Cl)nc21
QUALITATIVE_LABEL: no (0)
//
MOLECULE: CC(C)C(CC(C)(C)C)OC(=O)Nc1cccc2ccccc12 (stereo not given)
QUALITATIVE_LABEL: no (0)
//
MOLECULE: CCCCCCCCCCCCCCCCS(=O)(=O)Cl
QUALITATIVE_LABEL: no (0)

Qu. Any idea what this test logged for S=C(NN1CCOCC1)SSC(=S)NN1CCOCC1 ?
Ans. yes (1)

---

TEST_METHOD_NOTES: NCI Yeast Anticancer Drug Screen. Data for the mlh1 rad18 strain (AID 175)
REPORTED_CONDITIONS: S. cerevisiae mlh1 rad18 strain growth inhibition; at 5.0 µM (retest, dose inferred, filed as 0.5)
This is part of a sample that, as a whole, favours compounds with a hit. Of some 79,000 tested, about 15% had one in any assay. Activity calls are given as the source filed them. Rule as the data show it: active = growth inhibition above about 70%; inactive = the rest.
Pick from active, inactive when you respond.

Qu. Any idea what this test logged for Cn1cc(NC(=O)Nc2cc(C(=O)Nc3cc(C(=O)Nc4cc(S(=O)(=O)O)c5cc(S(=O)(=O)O)cc(S(=O)(=O)O)c5c4)n(C)c3)n(C)c2)cc1C(=O)Nc1cc(C(=O)Nc2cc(S(=O)(=O)O)c3cc(S(=O)(=O)O)cc(S(=O)(=O)O)c3c2)n(C)c1 ?
Ans. inactive

---

TEST_METHOD_NOTES: NCI Yeast Anticancer Drug Screen. Data for the sgs1 mgt1 strain (AID 161);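 further: 0% = growth of cultures given vehicle only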
REPORTED_CONDITIONS: S. cerevisiae sgs1 mgt1 strain, at 50.0 µM (retest, dose inferred, filed as 5.0), stronger effect = higher value
About 79,000 compounds went through this panel and 15% of them were active in at least one assay; those are over-represented in the sample as a whole.
MEASURED_QUANTITY: growth inhibition (%)
Entry rule: numbers only, all in %.

Example compounds with recorded growth inhibition:
COMPOUND: O=[N+]([O-])c1cc(Cl)ccc1S(=O)(=O)c1ccccc1
READOUT_NUMBER: 57

COMPOUND: N#Cc1c(Cl)nnc(-c2ccccc2)c1-c1ccccc1
READOUT_NUMBER: 83

Qu. Supply reported growth inhibition belonging to this compound: OCc1c(-c2cccc3ccccc23)sc(-c2cccc3ccccc23)c1CO
Ans. 56

Qu. Supply reported growth inhibition belonging to this compound: O=c1[nH]c2ccc([N+](=O)[O-])c(Cl)c2c2ccccc12
Ans. 98

Qu. Supply reported growth inhibition belonging to this compound: CCc1c(O)sc2c(c1=O)C(=NCC(C)C)CC(C)(C)N2
Ans. -4

Qu. Supply reported growth inhibition belonging to this compound: COc1cc(/C=C/C(=O)Sc2ccccc2)cc(OC)c1O
Ans. 60

Qu. Supply reported growth inhibition belonging to this compound: CCN(CC)CCOC(=O)Nc1cc(Cl)cc(Cl)c1
Ans. 87

Qu. Supply reported growth inhibition belonging to this compound: Clc1ccc(OCC(Cn2ccnc2)c2ccc(Cl)cc2)cc1 (centres undefined)
Ans. 97

Qu. Supply reported growth inhibition belonging to this compound: COc1ccc(C2=NN(c3ccccc3)C[N+](c3ccc(C)cc3)=N2)cc1
Ans. 98

Qu. Supply reported growth inhibition belonging to this compound: O=C(CNc1ccccc1[N+](=O)[O-])Nn1c(-c2ccccc2)nc2ccccc2c1=O
Ans. 33

Cited source for all entries: PubChem BioAssay (NCI)
